subject of test: T1, cynomolgus monkey OX40 protein (Novoprotein, #CB17) (cynomolgus monkey)
T1 construct: Bought recombinant protein; also called cyno OX40
protocol text: ELISA, coated cyno OX40 protein
The entries below are paired with their reported Maximum OD.
Give your result in OD as a bare value.

In the examples that follow, each entry is paired with its recorded Maximum OD.
>  <binder>
PR002062 (antibody, human IgG1, V domains shown, no light chain; also called anti-OX40 HCAb antibody) VH: EVQLLESGGGLVQPGGSLRLSCAASGFTFSSYAMSWVRQAPGKGQEWVSAISGSGGSTFYADSVRGRFTISRDNSKNTLYLQMSSLRAEDTAVYYCANGMTGTTDVDYWGQGTLVTVSS

>  <experimental readout>
Maximum OD

>  <readout unit>
OD

>  <reported measurement>
1.81

$$$$
>  <binder>
PR002072 (antibody, human IgG1, V domains shown, no light chain; also called anti-OX40 HCAb antibody) VH: EVQLLESGGGLVQPGGSLRLSCAASGFTFSSYAMSWVRQASGKGLEWISAISGSGGSTYYADSVRGRFTISRDNSKNTLYLQMNSLRADDTAVYYCANGMTGTTDVDFWGQGTPVTVSS

>  <experimental readout>
Maximum OD

>  <readout unit>
OD

>  <reported measurement>
2.97

$$$$

Note down Maximum OD recorded for PR002077 (antibody, human IgG1, V domains shown, no light chain; also called anti-OX40 HCAb antibody) VH: EVQLLESGGGLVQPGGSLRLSCAASGFTFSSYAMSWVRQAPGKGLEWVSAISGRGNITFYADSVRGRFTISRDNSKNTLYLQMNSLRAEDTAVYYCANGITGTTDVDYWGQGTLVTVSS
2.73

Note down Maximum OD recorded for PR002058 (antibody, human IgG1, V domains shown, no light chain; also called anti-OX40 HCAb antibody) VH: EVQLLESGGGLVQPGGSLRLSCAASGFTFSSYAMSWVRQAPGKGLEWVSAISGGSGSTFYADSVRGRFTISRDNSKNTLYLQMNSLRAEDTAVYYCADGVTGTDFDFWGQGTLVTVSS
1.76
